The reported numbers originate from paper PMC7518156.

experiment: Pharmacokinetics of ERL and GEF in Wistar rats after four weeks consumption of water or flavoured water (plasma, UPLC-MS/MS, non-compartmental analysis); assay type: in vivo; conditions: male, Wistar, rat, plasma, po, 20 mg/kg, rats, 20 mg/kg oral; +Pineapple FW; average; time 1 h; read-out: Conc*10 (ng/mL plasma)
reported.metric: concentration at 1 h (ng/mL)

[P] C#Cc1cccc(Nc2ncnc3cc(OCCOC)c(OCCOC)cc23)c1 [ERL, Erlotinib]
[Q] COc1cc2ncnc(Nc3ccc(F)c(Cl)c3)c2cc1OCCCN1CCOCC1 [GEF, Gefitinib]
Problem: Given the listed items, does P or Q have the lesser reported concentration at 1 h? Reply with the label of the item you choose.
Solution: P
(P: 36.6 ng/mL, Q: 302 ng/mL)

###

assay: Pharmacokinetics of ERL and GEF in Wistar rats after four weeks consumption of water or flavoured water (plasma, UPLC-MS/MS, non-compartmental analysis); assay type: in vivo; settings: male, Wistar, rat, plasma, po, 20 mg/kg, rats, 20 mg/kg oral; +Pineapple FW; average; time 48 h; read-out: Conc*10 (ng/mL plasma)
reported.metric: concentration at 48 h (ng/mL)

[1] C#Cc1cccc(Nc2ncnc3cc(OCCOC)c(OCCOC)cc23)c1
[2] COc1cc2ncnc(Nc3ccc(F)c(Cl)c3)c2cc1OCCCN1CCOCC1
Problem: Hi, I'm comparing two records. Which one has the lower concentration at 48 h, 1 or 2 ? // caller expects the label of the chosen entry
Solution: 1

###

Assay: Pharmacokinetics of ERL and GEF in Wistar rats after four weeks consumption of water or flavoured water (plasma, UPLC-MS/MS, non-compartmental analysis)
Assay type: in vivo
Conditions: male, Wistar, rat, plasma, po, 20 mg/kg, raw data sheet, from average profile; +Peach FW
Experimental: Fifty healthy male Wistar rats weighing 250 ± 30 g were obtained from the animal house, College of Pharmacy, King Saud University, Riyadh, Saudi Arabia. Rats were randomly divided into ten cages (n = 5). […] Cmax and tmax were obtained from the corresponding plasma concentration–time curve (Figs. 1A and 1B). […] The area under the plasma concentration–time curve from time 0 to the last sampling time t, 48 h (AUC0–t) was calculated using the trapezoidal rule. […]
reported.metric: Cmax (µg/mL)

[P] C#Cc1cccc(Nc2ncnc3cc(OCCOC)c(OCCOC)cc23)c1
[Q] COc1cc2ncnc(Nc3ccc(F)c(Cl)c3)c2cc1OCCCN1CCOCC1
Problem: Of the two listed items, which has the higher Cmax? First: P Second: Q Answer format: the label of the selected item.
Solution: Q

###

test: Pharmacokinetics of ERL and GEF in Wistar rats after four weeks consumption of water or flavoured water (plasma, UPLC-MS/MS, non-compartmental analysis); type: in vivo; conditions: male, Wistar, rat, plasma, oral, 20 mg/kg, PKSolver sheet; dose 20 mg/kg; +Lime; time 48 h; read-out: Conc
reported.metric: concentration at 48 h (µg/mL)

[a] C#Cc1cccc(Nc2ncnc3cc(OCCOC)c(OCCOC)cc23)c1
[b] COc1cc2ncnc(Nc3ccc(F)c(Cl)c3)c2cc1OCCCN1CCOCC1
Problem: // select label with min value of measured concentration at 48 h from [ a , b ] Respond using the label that marks the chosen record.
Solution: a

###

test: Pharmacokinetics of ERL and GEF in Wistar rats after four weeks consumption of water or flavoured water (plasma, UPLC-MS/MS, non-compartmental analysis); type: in vivo; details: male, Wistar, rat, plasma, po, 20 mg/kg, rats, 20 mg/kg oral; four weeks peach FW; n = 5, mean (SD)
reported.metric: AUC(0-inf) (ng·h/mL)

[P] C#Cc1cccc(Nc2ncnc3cc(OCCOC)c(OCCOC)cc23)c1 [ERL, Erlotinib]
[Q] COc1cc2ncnc(Nc3ccc(F)c(Cl)c3)c2cc1OCCCN1CCOCC1 [GEF, Gefitinib]
Problem: For P and Q , which recorded AUC(0-inf) is lower? Answer by stating the label of the chosen item.
Solution: P
